Data origin: patent US20240336638A1

ASSAY TEXT: Pharmacokinetics in SD rats after single IV and PO administration, plasma
Type: in vivo
CONDITION INFO: Sprague-Dawley (SD); rat plasma; IV 1 mg/kg
Decide using Cmax alone. Strictly below 3000 ng/mL: YES. Equal to or above 3000 ng/mL: NO.

Use the examples below as a reference point.
Q) is_below(Cmax, 3000 ng/mL) for `O=C(O)[C@@H]1C[C@H]1c1ccc(Cn2ccnc2)c(F)c1` ?
A) NO

Q) is_below(Cmax, 3000 ng/mL) for `O=C(O)[C@@H]1C[C@H]1c1ccc(Cn2cnc(F)c2)c(Cl)c1` ?
A) NO

Q) is_below(Cmax, 3000 ng/mL) for `O=C(O)[C@@H]1C[C@H]1c1ccc(Cn2ccnc2)cc1` ?
A) NO

Q) is_below(Cmax, 3000 ng/mL) for `O=C(O)[C@@H]1C[C@H]1c1ccc(Cn2cnc(F)c2)cc1F` ?
A) NO

Now for another entry.
Q) is_below(Cmax, 3000 ng/mL) for O=C(O)/C=C/c1ccc(Cn2ccnc2)cc1 [Ozagrel, reference compound] ?
A) YES
